All values here come from ChEMBL document CHEMBL4130363.

- study.system: Sigma non-opioid intracellular receptor 1 (Homo sapiens)
- Sequence (Q99720 whole entry): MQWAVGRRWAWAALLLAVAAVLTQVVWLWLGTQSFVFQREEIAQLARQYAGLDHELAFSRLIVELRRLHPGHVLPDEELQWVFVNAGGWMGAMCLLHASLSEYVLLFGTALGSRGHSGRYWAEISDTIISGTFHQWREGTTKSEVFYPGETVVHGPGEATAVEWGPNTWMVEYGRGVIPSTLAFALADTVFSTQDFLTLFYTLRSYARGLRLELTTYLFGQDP
- method.notes: Displacement of [3H](+)-pentazocine from S1R in human Jurkat cell membranes after 2 hrs by liquid scintillation counting
endpoint: Ki (nM)
Express it in nM; write the number only.

Completed entries (count: 2):
{"structure.notation": "O=C(NCCCN1Cc2ccccc2C1)c1ccc(Cl)cc1", "unit.annotation": "nM", "value": 19}
{"structure.notation": "CN(CCNC(=O)c1ccc(Cl)cc1)Cc1ccccc1", "unit.annotation": "nM", "value": 3.6}

Now for the molecule whose Ki we want.
The reported value for CN(CCNC(=O)c1cccc(Cl)c1Cl)Cc1ccccc1 in terms of Ki is 6.5
